Molecular target: Mitogen-activated protein kinase 14 (Homo sapiens) (UniProt Q16539);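 also: values are mean percent inhibition of p38alpha kinase activity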
Sequence (Q16539 whole entry): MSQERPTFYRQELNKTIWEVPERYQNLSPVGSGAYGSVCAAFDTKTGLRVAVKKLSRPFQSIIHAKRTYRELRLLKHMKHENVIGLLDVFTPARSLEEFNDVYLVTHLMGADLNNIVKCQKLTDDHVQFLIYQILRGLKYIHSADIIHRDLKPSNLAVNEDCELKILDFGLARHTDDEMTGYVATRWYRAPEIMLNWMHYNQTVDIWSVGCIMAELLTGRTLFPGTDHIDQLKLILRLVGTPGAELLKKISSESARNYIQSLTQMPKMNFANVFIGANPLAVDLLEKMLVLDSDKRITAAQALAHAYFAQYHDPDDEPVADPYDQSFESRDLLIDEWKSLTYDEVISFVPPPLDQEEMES
Details: at 1 µM
observation.type: inhibition (%)
Answers are plain numbers, in %.

• COC(=O)Nc1nc2ccc(S(=O)(=O)c3ccc(NC(=O)Nc4cc(C(F)(F)F)ccc4F)cc3)cc2[nH]1 = 8.81
• Clc1ccc(-c2nn3ncccc3c2-c2ccnc(Nc3ccccc3)n2)cc1 = 82.8
• CNC(=O)c1cncc(/C=C/c2ccccc2Cl)c1 = -0.16
• CCc1nn2ncccc2c1-c1ccnc(NC2CC2)n1 = 7.08
• Fc1ccc(-c2nn3ncccc3c2-c2ccnc(Nc3ccc4c(c3)OCCO4)n2)cc1 = 92.8

For every listed record, write down its inhibition.
1. COc1ccc(CNC(=O)c2ccc(-c3cc(-c4nnc(C)o4)ccc3C)cc2)cc1
2. CN1CCC(n2cnc(-c3ccc(F)cc3)c2-c2ccnc(Nc3ccccc3)n2)CC1

Result:
66.6
90.8
